The values you see were collected from PubChem BioAssay (NCI).

- Test system: SF-539 CNS
- Test method notes: NCI tumour cell line growth inhibition, 48 h
Observable: TGI

# Molecule, TGI
measured = [
    ("COc1ccc2c(c1OC)C(=O)c1cnccc1C2=O", "> 100 µM"),
    ("O=C1OC(CN2CCOCC2)CN1/N=C/c1ccc([N+](=O)[O-])o1 (stereo not drawn)", "> 100 µM"),
    ("CC(=O)ON(C(C)=O)c1ccc(-c2nc3ccccc3s2)cc1C", "> 100 µM"),
    ("N#Cc1nc(COCCOCc2ccc(F)cc2)oc1N", "> 100 µM"),
    ("COC1=C2CC(C)CC(OC)C(O)C(C)/C=C(\\C)C(OC(N)=O)C(OC)/C=C\\C=C(/C)C(=O)NC(=C(/C=N/N3CCCCC3)C1=O)C2=O (stereo not drawn)", "20.8 µM"),
]

Data request, read-out TGI, for O=c1[nH]c2c(c(=O)[nH]1)SSC2
9.7 µM

Data request, read-out TGI, for CC1=NN(C(=O)CC(=O)Nc2cccc(Cl)c2)C(=O)C1N=Nc1ccc(C(=O)O)cc1 (stereo not drawn)
> 100 µM

Data request, read-out TGI, for COC(=O)c1c(-c2ccccc2)c2sc3ccccc3n2c1N
> 100 µM

###

Quick list: TGI per entry.
- System: SF-295 CNS
- Test method notes: NCI tumour cell line growth inhibition, 48 h
# number only, unit µM dropped from output

# Smi, Recorded value
records = [
    ("NC(=O)c1cccc([C@@H]2O[C@H](CO)[C@@H](O)[C@H]2O)c1", 28.7),
]

Proceed to the following item.
Data request, read-out TGI, for ClCc1ccc(Cn2cnc3c(Cl)nc(Cl)nc32)cc1
19.5

###

Quick list: TGI per entry.
- Test system: 786-0 renal
- Test method notes: NCI tumour cell line growth inhibition, 48 h

# Compound, TGI
data = [
    ("COc1cc(C(=O)Oc2c(C#N)sc3c2c(=O)n(-c2ccccc2)c(=S)n3-c2ccccc2)cc(OC)c1OC", "> 100 µM"),
    ("CC(=O)Oc1ccc(C(c2ccc(OC(C)=O)cc2)c2ccccn2)cc1", "> 100 µM"),
    ("C=C1[C@@H]([C@@]2(C)C=CC(=O)C(C)(C)[C@@H]2CC(=O)OC)CC[C@@]2(C)C(c3ccoc3)OC(=O)[C@H]3O[C@]132 (some centres undefined)", "> 100 µM"),
]

Proceed to the following item.
Data request, read-out TGI, for Cc1ccccc1N=NC(C(=O)c1ccccc1)C(=O)c1ccccc1
78.3 µM

###

Quick list: log10(TGI) per entry.
- Test system: SK-MEL-5 melanoma
- Test method notes: NCI tumour cell line growth inhibition, 48 h
Reminder: these figures are log10 of reported TGI, in µM before transformation.

Study these solved cases before continuing.
# Molecule, Measured on, log10(TGI)
records = [
    ("CC1=NN=C(N)NC1=CC(Sc1ccc(Cl)cc1)c1c(O)ccc2ccccc12 (configuration not stated)", "SK-MEL-5 melanoma", 1.33),
    ("O=C1OC(OCC#CCOC2OC(=O)C(Cl)=C2Cl)C(Cl)=C1Cl (configuration not stated)", "SK-MEL-5 melanoma", 1.64),
    ("CC[C@@H]1/C=C/C=C/C[C@H](C)[C@@H](O)[C@](C)(O)C(=O)[C@H](C)[C@@H](O)[C@H](C)C(=O)[C@H](C)[C@@H](O)[C@H](C)/C=C/C(=O)O[C@H]2[C@@H](C)[C@@H](CC1)O[C@@]1(CC[C@@H](C)[C@@H](CC(C)O)O1)[C@@H]2C (some centres not stated)", "SK-MEL-5 melanoma", 0.23),
    ("CCN(CC)CCOc1ccc(C(=O)/C=C\\c2ccc(Cl)cc2Cl)cc1", "SK-MEL-5 melanoma", 1.09),
    ("O=C(Nc1ccc(I)cc1F)c1cc(Cl)ccc1O", "SK-MEL-5 melanoma", -0.22),
]

Proceed to the following item.
// map CC(CCCOC(c1ccccc1)(c1ccccc1)c1ccccc1)OC(=O)Nc1ccccc1 (configuration not stated) to recorded log10(TGI) (system: SK-MEL-5 melanoma)
1.43
